Assay: qHTS profiling for inhibitors of Plasmodium falciparum (3D7) proliferation (AID 743322);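 also: infected erythrocytes exposed to compound for 72 h before lysis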
Conditions: P. falciparum 3D7 proliferation; at 28.7 µM (top of the series) unless noted
I'd appreciate it if you marked entries True when remaining parasite growth % (stronger effect = lower value) is lower than 70% and False when it is not.

is_below(remaining parasite growth % (stronger effect = lower value), 70%) for COCC(=O)NCC=Cc1ccc2ncnc(Nc3ccc(Oc4ccc(C)nc4)c(C)c3)c2c1 ?
True

# check: remaining parasite growth % (stronger effect = lower value) < 70% for CCCc1nn(C)c2c(=O)[nH]c(-c3cc(S(=O)(=O)N4CCN(C)CC4)ccc3OCC)nc12
False

Strictly below 70% in remaining parasite growth % (stronger effect = lower value)? O=C1CCCC2=C1C(c1[nH]ncc1Cl)N=C(Nc1nc3ccccc3o1)N2 (stereo not drawn)
False

remaining parasite growth % (stronger effect = lower value) strictly < 70% for this compound? COc1ccc(CCN2CCN(CCCc3ccccc3)CC2)cc1OC
True

Is the reported remaining parasite growth % (stronger effect = lower value) for COc1ccccc1[C@H](c1cccc2ccccc12)[C@@](C)(C#N)C(=O)N1CCC(c2cccc(C(F)(F)F)c2)CC1 strictly below 70%?
True

Quick check: does Nc1nccc(-c2ccc3noc(-c4ccc(Cl)cc4)c3c2)n1 have remaining parasite growth % (stronger effect = lower value) under 70%?
False

Quick check: does Cc1cnc(Nc2ccc(OCCN3CCCC3)cc2)nc1Nc1cccc(S(=O)(=O)NC(C)(C)C)c1 have remaining parasite growth % (stronger effect = lower value) under 70%?
True

Dear reviewer, please state whether Cc1ccnc(NS(=O)(=O)c2ccc(NC(=O)Nc3ccc(S(=O)(=O)Nc4nccc(C)n4)cc3)cc2)n1 has remaining parasite growth % (stronger effect = lower value) strictly beneath 70%.
True

Is the reported remaining parasite growth % (stronger effect = lower value) for Oc1cccc(-c2nc(N3CCOCC3)c3oc4ncccc4c3n2)c1 strictly below 70%?
True

remaining parasite growth % (stronger effect = lower value) strictly < 70% for this compound? CCOC(=O)N[C@@H]1CC[C@@H]2[C@@H](C1)C[C@H]1C(=O)O[C@H](C)[C@H]1[C@@H]2C=Cc1ccc(-c2cccc(F)c2)cn1
True

Threshold test, remaining parasite growth % (stronger effect = lower value) < 70%: CCOc1cc(C=C2C(=O)N(c3ccccc3)N=C2C)cc(Cl)c1OCC(=O)OC
False

Say whether its remaining parasite growth % (stronger effect = lower value) is strictly beneath 70%. Entry: CS(=O)(=O)c1cccc(CNc2nc(Nc3ccc4c(c3)CCC(=O)N4)ncc2C(F)(F)F)c1
False

Criterion: remaining parasite growth % (stronger effect = lower value) strictly below 70%. Is it met by CC(C)C[C@H](NC(=O)[C@@H](O)[C@H](N)Cc1ccccc1)C(=O)O ?
True

Take the compound CS(=O)(=O)c1ccc(C(=O)Nc2ccc(Cl)c(-c3ccccn3)c2)c(Cl)c1 and say whether its remaining parasite growth % (stronger effect = lower value) is less than 70%.
False

Determine if O=C(C1CC1)N1CC[C@@H](Cn2c(-c3ccc(-c4ccc5occc5c4)cc3)nc3cnccc32)C1 shows remaining parasite growth % (stronger effect = lower value) strictly lower than 70%.
False

remaining parasite growth % (stronger effect = lower value) strictly < 70% for this compound? OC[C@H](Cc1ccccc1)Nc1nc(Oc2ccc3c(c2)CCC3)nc2c1ncn2Cc1ccc(-c2ccccc2)cc1
True

Here's an entry: O=C(NOC[C@H](O)CO)c1ccc(F)c(F)c1Nc1ccc(I)cc1F . Is its remaining parasite growth % (stronger effect = lower value) below 70%?
False

Take the compound CCN(CC)CCCC(C)Nc1nc(C)cc(Nc2ccc3nc(C)cc(N)c3c2)n1 (stereo not drawn) and say whether its remaining parasite growth % (stronger effect = lower value) is less than 70%.
True

Bench note: check whether CCOc1cc(C(=O)Nc2ccc(Cl)c(-c3nc4ccccc4[nH]3)c2)cc(OCC)c1OCC shows remaining parasite growth % (stronger effect = lower value) below 70%
True

Would you kindly verify if remaining parasite growth % (stronger effect = lower value) of NC(=O)c1ccc(I)c([N+](=O)[O-])c1 is strictly less than 70%?
False

Quick check: does Cc1ccc(-n2nc(C(C)(C)C)cc2NC(=O)Nc2ccc(OCCN3CCOCC3)c3ccccc23)cc1 have remaining parasite growth % (stronger effect = lower value) under 70%?
True

For this compound, is remaining parasite growth % (stronger effect = lower value) lower than 70%? COc1cc(F)c(F)c(Nc2ccc(I)cc2F)c1NS(=O)(=O)C1(C[C@H](O)CO)CC1
False

Lab note: confirm whether the reported remaining parasite growth % (stronger effect = lower value) for this compound is below 70%, equality not counting. compound: CCN(CC)CCCC(C)Nc1ccnc2cc(Cl)ccc12 (stereo not drawn)
True

Please determine if CNC(=O)c1ccc(N2C(=S)N(c3ccc(C#N)c(C(F)(F)F)c3)C(=O)C2(C)C)cc1F is below 70% in terms of remaining parasite growth % (stronger effect = lower value).
False

For CCCS(=O)(=O)Nc1ccc(F)c(C(=O)c2c[nH]c3ncc(-c4ccc(Cl)cc4)cc23)c1F , is the recorded remaining parasite growth % (stronger effect = lower value) below the cut-off of 70%?
True

Confirm or reject: remaining parasite growth % (stronger effect = lower value) of O=c1[nH]c(-c2ccc(C(F)(F)F)cc2)nc2c1CSCC2 lies strictly below 70%
False

For C[C@]1(c2nc3c(C(N)=O)cccc3[nH]2)CCCN1 , is the recorded remaining parasite growth % (stronger effect = lower value) below the cut-off of 70%?
False

remaining parasite growth % (stronger effect = lower value) under 70%? Item: CN[C@@H](C)C(=O)N[C@H]1CCCC[C@H]2CC[C@@H](C(=O)N[C@@H](c3ccccc3)c3cn(CCCCc4ccc(CCCCn5cc([C@@H](NC(=O)[C@@H]6CC[C@@H]7CCCC[C@H](NC(=O)[C@H](C)NC)C(=O)N76)c6ccccc6)nn5)cc4)nn3)N2C1=O
True

Please let me know if CNC(=O)c1ccc(C)c(-n2c(C)cc(OCc3ccc(F)cc3F)c(Br)c2=O)c1 shows remaining parasite growth % (stronger effect = lower value) below 70%.
False

Does the reported remaining parasite growth % (stronger effect = lower value) of CC(C)(N)C(=O)N[C@H](COCc1ccccc1)C(=O)N1CCC2(CC1)CN(S(C)(=O)=O)c1ccccc12 stay below 70%?
False

Take the compound COc1ccccc1-c1cccc(-c2c(O)c3cc(C#N)c(Cl)cc3[nH]c2=O)c1 and say whether its remaining parasite growth % (stronger effect = lower value) is less than 70%.
False

Strictly below 70%: is that where remaining parasite growth % (stronger effect = lower value) of CCCn1c(=O)c2[nH]c(C34CC5CC3C[C@@H](C5)C4)nc2n(CCC)c1=O sits?
False

Take the compound O=C(C=Cc1ccc(/C=C/C(=O)Nc2ccc(C3=NCCN3)cc2)cc1)Nc1ccc(C2=NCCN2)cc1 and say whether its remaining parasite growth % (stronger effect = lower value) is less than 70%.
True

Does COc1ccc(C2=N[C@H](c3ccc(Cl)cc3)[C@H](c3ccc(Cl)cc3)N2C(=O)N2CCNC(=O)C2)c(OC(C)C)c1 have remaining parasite growth % (stronger effect = lower value) strictly under 70%?
True

is_below(remaining parasite growth % (stronger effect = lower value), 70%) for CCc1cncnc1N1CCN(Cc2nc3ccc(C(F)(F)F)cc3[nH]2)CC1 ?
True
